experiment: In vitro stability behavior at 4 hr; type: physicochemical; conditions: read-out: Turnover
Known degraded at 4 h of a selection of compounds
Number in %, nothing else.

[
  {
    "Compound": "CC(C)[C@H](NC(=O)OC(C)(C)C)C(=O)N1CC[C@H]2[C@H]1C1(CCC1)C(=O)N2C(=O)C1CC1",
    "Observable": "degraded at 4 h",
    "Numeric Result": 27
  }
]

Please report the recorded degraded at 4 h for CC(C)C(=O)N1C(=O)C2(CCC2)[C@@H]2[C@@H]1CCN2C(=O)[C@@H](NC(=O)OC(C)(C)C)C(C)C (relative stereo) .
5
